- RUN_DESCRIPTION: A qHTS for Small Molecule Inhibitors of Shiga Toxin
- CONDITION_DESCRIPTION: Vero cells, Shiga toxin protein synthesis inhibition reporter; at 38.7 µM
In all, about 290,000 compounds went through this assay and about 27,000 (9.3%) were called active. No stated cut-off is given here; in the data, active means inhibition mostly above about 28% (no sharp cut-off); inactive means mostly below about 43%. The entries come from a sample that favours actives as a whole.
Labels: class 1 = active, class 0 = inactive

CPD_SMILES | ASSIGNED_CATEGORY
O=C(Nc1cccnc1Cl)c1cc(-c2cccc(Cl)c2)on1 | class 0
COC(=O)C1=C(O)/C(=C/c2ccc(OCC(=O)Nc3ccccc3)cc2)N=C1C | class 0
CCOC(=O)Cc1csc(NC(NC(=O)OCC)(C(F)(F)F)C(F)(F)F)n1 | class 0
COc1ccccc1CNS(=O)(=O)c1ccc2c(c1)NC(=O)CS2 | class 0
CN(C)CCN=c1cc(-c2ccccc2)oc2ccc(Cl)cc12 | class 1
O=c1c2ccccc2ncn1/N=C/c1ccccc1 | class 1
CN(C)CCn1c(=S)[nH]c2ccc(Cl)cc2c1=O | class 0
CCOC(=O)Cc1csc(NC(=O)Nc2ccccc2)n1 | class 0
O=C(CN(c1cc(C(F)(F)F)ccc1Cl)S(=O)(=O)c1ccccc1)NCc1cccnc1 | class 0
O=c1c2ccccc2nc(N/N=C/c2ccccc2)n1O | class 0
Oc1ccc(Br)cc1C=Nc1ccc2[nH]ncc2c1 | class 0

====

- RUN_DESCRIPTION: A qHTS for Small Molecule Inhibitors of Shiga Toxin
- CONDITION_DESCRIPTION: Vero cells, Shiga toxin protein synthesis inhibition reporter; at 38.7 µM
Among all 290,000 compounds or so, about 27,000 (9.3%) were called active. Cut-off read from the data, not from the text of the source: active = inhibition mostly above about 28% (no sharp cut-off); inactive = mostly below about 43%. The sample as a whole holds a higher share of actives than the screen did.
Labels: 1 (active), -1 (inactive)

COMPOUND | ASSIGNED_CATEGORY
O=[N+]([O-])c1cnc2ccc3ccccc3c2c1 | -1
Cc1ccc(NC(=O)[C@H](Cc2ccccc2)NC(=O)C2CCNCC2)cc1 | -1
COc1ccccc1CC(=O)Nc1ccc(F)cc1F | -1
Cc1ccc(C)c(NC(=O)NNC(=O)c2ccc3ccccc3c2O)c1 | -1
COc1ccc(-c2nc3cc([N+](=O)[O-])ccc3o2)cc1OC | -1
Cc1ccc2nc(/C(C#N)=C\c3ccc(OC(=O)c4cccs4)cc3)[nH]c2c1 | 1
Cc1ccc(C(=O)N/C(=C\c2ccc(F)cc2)C(=O)NCCN2CCOCC2)cc1 | -1
CCc1cccc(CC)c1NC(=S)Nc1ccc2cn[nH]c2c1 | -1
Cc1cc(C(=O)NNC(=S)NC(C)c2ccccc2)cs1 (stereo not drawn) | -1
CCCCC(c1nnnn1CS(=O)(=O)c1ccc(C)cc1)N1CCC(C(N)=O)CC1 (stereo not drawn) | -1
COC(=O)c1ccccc1NC(=O)Cc1ccccc1OC | -1
COc1ccc2c(C)cc3nnnn3c2c1 | -1
CSc1ccc(NC(=O)/C=C/C(=O)O)cc1 | -1
CCn1cc(S(=O)(=O)c2cccc(C)c2)c(=O)c2cc(F)c(N3CCN(C)CC3)cc21 | -1
COc1ccccc1C(=O)OCC(=O)NCCNC(=O)COC(=O)c1ccccc1OC | -1
CC[C@]1(c2ccccc2OC)C(=O)N(C(=O)OC)N1C(=O)OC | 1
CC(C)Cc1nnc(NC(=O)CN2C(=O)NC3(CCCCC3)C2=O)s1 | -1
CSc1ccc(/C=C/C(=O)NC23CC4CC(CC(C4)C2)C3)cc1 | 1
CCOC(=O)c1cccc(NS(=O)(=O)c2c(C(=O)N3CCCCCC3)c(C)n(C)c2C)c1 | -1
COc1cccc(C(=O)NC(=O)Nc2nc(C)cc(C(F)(F)F)n2)c1 | -1
Cc1cc(C)cc(NS(=O)(=O)Cc2ccccc2)c1 | -1
COc1cccc(-c2nc(S(=O)(=O)c3ccccc3)c(N3CCOCC3)o2)c1 | -1
O=[N+]([O-])c1cccc(Nc2c3ccccc3nc3ccccc23)c1 | -1

====

- RUN_DESCRIPTION: A qHTS for Small Molecule Inhibitors of Shiga Toxin
- CONDITION_DESCRIPTION: Vero cells, Shiga toxin protein synthesis inhibition reporter; at 38.7 µM
Among all 290,000 compounds or so, about 27,000 (9.3%) were called active. Rule as the data show it: active = inhibition mostly above about 28% (no sharp cut-off); inactive = mostly below about 43%. The entries come from a sample that favours actives as a whole.
Labels: active, inactive

COMPOUND | ASSIGNED_CATEGORY
Oc1ccccc1-c1cc(-c2ccc(Cl)cc2)n[nH]1 | active
c1ccc(-c2cc(-c3nnc4sc(-c5ccccn5)nn34)[nH]n2)cc1 | inactive
Cc1ccc(-n2ncc3c2CC(C)(C)CC3NC(=O)Cc2c(C)noc2C)cc1 (stereo not given) | inactive
O=C(NCc1ccccn1)[C@]1(C(F)(F)F)C[C@H](CCc2ccccc2)CCCO1 | inactive
O=S(=O)(c1ccc(F)cc1)N1CCN=C1SCc1cccc(F)c1 | inactive

====

- RUN_DESCRIPTION: A qHTS for Small Molecule Inhibitors of Shiga Toxin
- CONDITION_DESCRIPTION: Vero cells, Shiga toxin protein synthesis inhibition reporter; at 38.7 µM, active compounds read high
Out of some 290,000 compounds screened, about 27,000 (9.3%) were called active. The entries come from a sample that favours actives as a whole.
Here, each record is paired with measured inhibition data.

COMPOUND | inhibition, %
CCCCCCC(O)(CCN1CCCCC1)c1ccccc1 (stereo not given) | -7.11
COCC(=O)Nc1c(C(=O)N2CCCC2)oc2ccccc12 | 3.56
Cn1c(=O)n(C)c2cc(S(=O)(=O)Nc3ccc(F)cc3)ccc21 | 0.488
Cc1cc(/C=C2/C(=N)N3C(=NC2=O)SN=C3S(C)(=O)=O)c(C)n1-c1ccccc1 | 98
Cc1noc(C)c1CSCC(=O)N(CCC(C)C)c1c(N)n(Cc2ccccc2)c(=O)[nH]c1=O | 6.62

====

- RUN_DESCRIPTION: A qHTS for Small Molecule Inhibitors of Shiga Toxin
- CONDITION_DESCRIPTION: Vero cells, Shiga toxin protein synthesis inhibition reporter; at 38.7 µM, active compounds read high
Out of some 290,000 compounds screened, about 27,000 (9.3%) were called active. Shown is part of a subset that was picked to be rich in actives.
Here, each record is paired with measured inhibition data.

MOLECULE | inhibition, %
COC(=O)c1ccc(C(=O)OC)c(NC(=S)N2CCCCC2)c1 | 12.8
CCCCN(C)CCNC(=O)C1CCCN(S(=O)(=O)c2cccc3nsnc23)C1 (stereo unspecified) | -5.4
COC(=O)c1ccc(/C=N/NC(=O)C(=O)N2CCCCCC2)cc1 | -5.76
CCCCC(=O)Nc1c2c(nn1-c1ccc([N+](=O)[O-])cc1)CS(=O)(=O)C2 | 19.5
Cc1ccc(C(=O)CNc2ccc(F)cc2)cc1 | 45.5
COc1ccc(NC(=O)C2C3CCC(O3)C2C(=O)O)cc1OC (stereo unspecified) | -5.78
O=[N+]([O-])c1cc(Br)c(O)c(/C=N/Nc2nc3ccccc3s2)c1 | 30.3
COc1ccc(NC(=O)CCCC(=O)c2ccccc2)cc1 | 6.27
c1ccc2sc(NN=C3CCCC3)nc2c1 | 72.4
Cc1ccc(C(=O)NC2CCN(C(=O)Nc3ccc(F)cc3)CC2)cc1 | -7.26
O=C(O)CCC(=O)Nc1ccc(OCC2CCCO2)cc1 (stereo unspecified) | 4.1

====

- RUN_DESCRIPTION: A qHTS for Small Molecule Inhibitors of Shiga Toxin
- CONDITION_DESCRIPTION: Vero cells, Shiga toxin protein synthesis inhibition reporter; at 38.7 µM
In all, about 290,000 compounds went through this assay and about 27,000 (9.3%) were called active. Rule as the data show it: active = inhibition mostly above about 28% (no sharp cut-off); inactive = mostly below about 43%. The sample holds actives, similar compounds and a random draw of the others, so the mix is not that of the screen.
Labels: T (active), F (inactive)

COMPOUND | ASSIGNED_CATEGORY
CC(=O)c1cccc(NC(=S)N2CCN(S(C)(=O)=O)CC2)c1 | F
CCN1C(=O)C(CC(=O)Nc2cc(C)ccc2C)SC1=Nc1ccc(S(N)(=O)=O)cc1 (stereo not given) | F
Cc1cc(C)n(-c2nnc(N3CCN(c4ccccc4)CC3)nn2)n1 | T
Cc1cc(N2CCN(c3ccccc3)CC2)nc(N2CCOCC2)n1 | F
O=C(CC1SC(=Nc2ccccc2)N(Cc2ccccn2)C1=O)Nc1cccc(Cl)c1 (stereo not given) | T

====

- RUN_DESCRIPTION: A qHTS for Small Molecule Inhibitors of Shiga Toxin
- CONDITION_DESCRIPTION: Vero cells, Shiga toxin protein synthesis inhibition reporter; at 38.7 µM
The whole screen tested about 290,000 compounds, of which about 27,000 (9.3%) were called active. No stated cut-off is given here; in the data, active means inhibition mostly above about 28% (no sharp cut-off); inactive means mostly below about 43%. For the sample, actives were picked, then their nearest neighbours and some compounds at random.
Labels: yes = active, no = inactive

COMPOUND | ASSIGNED_CATEGORY
O=C(NC(=S)Nc1ccc(Cl)cc1Cl)C1CC1 | yes
CN(C(=O)c1ccccc1)c1nccnc1C#N | no
COc1ccc(NC(=O)Cn2ncn3c(cc4ccccc43)c2=O)c(OC)c1OC | no
S=C(Nc1ccc(Br)cc1Cl)N1CCC2(CC1)OCCO2 | yes
C=Cc1ccc(C(=O)N2CCCC(CCC(=O)N3CCN(c4ccccn4)CC3)C2)cc1 (stereo unspecified) | no
C=CCn1c(SCc2ccc(C(=O)NCCO)cc2)nc2ccccc2c1=O | no
S=C(Nc1ccc(Cl)cc1Cl)N1CCCC1 | yes
S=C(NCc1cccnc1)Nc1ccc(Cl)cc1Cl | no
CC(NS(=O)(=O)c1ccc(OCC(=O)N2CCCC2)cc1)c1ccccc1 (stereo unspecified) | no
CC(=O)c1cccc(NC(=S)N2CCCC2)c1 | no
C=CCn1c(SCc2ccccc2)nc2c1c(=O)[nH]c(=O)n2C | no
COc1ccccc1N1CCN(S(=O)(=O)CCNC(=O)c2ccc(OC(C)C)cc2)CC1 | no
Cc1cc(Cl)ccc1NC(=S)N1CCC(C(N)=O)(N2CCCCC2)CC1 | no
O=C(N/N=C/c1ccccn1)C12CC3CC(CC(C3)C1)C2 | yes
CC(C)C(=O)Nc1cccc(NC(=O)c2ccc([N+](=O)[O-])cc2Cl)c1 | no
CCC(C)c1ccc(NC(=S)N2CCCC2)cc1 (stereo unspecified) | yes
O=C(N/N=C/c1ccccn1)c1cccc(NC(=O)c2ccc(Cl)cc2)c1 | no
Cc1ccc(NC(=O)COc2ccc(/C=N\NC(=O)c3cccnc3)cc2)cc1C | no
Cc1ccc2c(c1)C1CN(C)CCC1N2C(=S)Nc1ccc(Cl)cc1Cl (stereo unspecified) | no
CCOC(=O)c1c(-c2ccccc2)oc2ccc(OCC(N)=O)cc12 | no
O=C(N/N=C/c1ccc(O)c2ccccc12)c1cccnc1 | no
COc1ccccc1CNC(=O)C1CCN(S(=O)(=O)c2ccc3c(c2)OCCO3)CC1 | no
COc1ccc(COC(=O)c2ccc(Cl)c(S(=O)(=O)N3CCOCC3)c2)cc1F | no
NS(=O)(=O)c1ccc(NC(=S)N2CCCC2)cc1 | no
CCOC(=O)c1sc(=NC(=O)c2ccc(Br)cc2)n(C)c1C | no
N#Cc1ccccc1NC(=O)c1ccc2c(c1)OCO2 | no
COCc1nnc(NC(=O)CS(=O)(=O)Cc2ccccc2)s1 | no
CC1CN(C(=S)Nc2ccc(Br)cc2Cl)CC(C)O1 (stereo unspecified) | no
O=C(N/N=C/c1ccccn1)c1ccc(S(=O)(=O)N2CCCCCC2)cc1 | yes
CN(C)C(=S)Nc1ccc(Br)cc1Cl | no
Cc1c(C)c2ccc(OCC(=O)N3CCN(c4cccc(Cl)c4)CC3)cc2oc1=O | no
COc1ccc(CN2CCCC(N3CCc4ccccc4C3)C2)c(O)c1 (stereo unspecified) | no
Cc1c(Cl)cccc1NC(=O)NCCCN1CCCC1=O | no
CNC(=O)N1c2ccccc2C=Cc2ccccc21 | no
CNC(=O)C(=O)N/N=C/c1ccccn1 | no
C/C(=N\NC(=O)Cc1ccccc1[N+](=O)[O-])c1cccnc1 | no
NNC(=O)c1cccc(COCC(F)(F)C(F)F)c1 | no
COc1ccc(CN2CCNC(=O)C2CC(=O)NCc2cn[nH]c2-c2ccccc2)c(F)c1 (stereo unspecified) | no
O=C(N/N=C/c1ccccn1)c1cccnc1 | yes
COc1ccc(N2CCN(C(=O)CN3C(=O)COc4ccccc43)CC2)cc1 | no
O=C(CNC(=O)[C@@H]1Cc2ccccc2CN1)NC1CCCCC1 | no
COCCn1cnc2c1c(=O)n(CC(=O)NN)c(=O)n2Cc1ccccc1 | no
COC(=O)c1ccc(C(NC(=O)OCc2ccccc2)/C(C)=C/[C@@H](C)C(=O)NCc2ccc(OC)c(OC)c2)cc1 (stereo partly specified) | no
CN1CCN(S(=O)(=O)c2ccc(NC(=S)NC(=O)C3CC3)cc2)CC1 | no
COc1ccccc1N1CC(C(=O)Nc2nnc(SCC(=O)NC(C)C)s2)CC1=O (stereo unspecified) | no
COc1ccc(S(=O)(=O)N2CCSCC2)cc1 | no
